Tested on: A673/TR/shEF
ASSAY: cell viability (LOESS-normalised, relative to median of negative controls) (log2 ratio); higher = more viable cells (less compound effect), active = hit call of the paper (over 3 MAD below the median)
STATED CONDITIONS: 0.103 µM; library screen: screen3; EWS-FLI1 expression: low (doxycycline-induced shRNA knockdown); treatment time: 72 h
The campaign covered roughly 3,200 compounds. About 300 (9.4%) showed activity. This is one part of a sample in which actives are shown more often than they occur.
// thresholds for cell viability (log2) classes: low value = under -0.01, medium value = from -0.01 up to 0.04, high value = 0.04 and over

Query: Would you mind sorting "COc1ccc2nc([S@@+]([O-])Cc3ncc(C)c(OC)c3C)[nH]c2c1" into the appropriate category?
Result: low value

Query: Do the same for "C#Cc1cccc(Nc2ncnc3cc(OCCOC)c(OCCOC)cc23)c1" please
Result: high value

Query: Do the same for "Nc1nc(Cl)nc2c1ncn2[C@H]1C[C@H](O)[C@@H](CO)O1" please
Result: low value

Query: Do the same for "Nc1nc(Cl)nc2c1ncn2[C@@H]1O[C@H](CO)[C@@H](O)[C@@H]1F" please
Result: high value

Query: Do the same for "C#Cc1cccc(Nc2ncnc3cc(OC)c(OCCCCCCC(=O)NO)cc23)c1" please
Result: low value

Query: Do the same for COc1ccc2nc([S+]([O-])Cc3ncc(C)c(OC)c3C)[nH]c2c1 (stereo not given) please
Result: medium value

Query: Do the same for "Nc1ccc(S(=O)(=O)Nc2ncccn2)cc1" please
Result: high value

Query: Do the same for C[N+]1(C)[C@@H]2CC(OC(=O)C(O)(c3cccs3)c3cccs3)C[C@H]1[C@@H]1O[C@@H]12 (stereo not given in full) please
Result: low value

Query: Do the same for "COCC(=O)NC/C=C/c1ccc2ncnc(Nc3ccc(Oc4ccc(C)nc4)c(C)c3)c2c1" please
Result: medium value

====

Tested on: A673/TR/shEF
ASSAY: cell viability (LOESS-normalised, relative to median of negative controls) (log2 ratio); higher = more viable cells (less compound effect), active = hit call of the paper (over 3 MAD below the median)
STATED CONDITIONS: 0.25 µM; library screen: screen1; EWS-FLI1 expression: low (doxycycline-induced shRNA knockdown); treatment time: 72 h
Hit rate of the full screen: of about 3,200 compounds, about 300 (9.4%) showed activity. The sample holds actives, similar compounds and a random draw of the others, so the mix is not that of the screen.
Response field label takes yes (1) when cell viability (log2) is strictly below 0.07 and no (0) in all other cases.

Query: hey, is cell viability (log2) for "CCc1cn([C@H]2C[C@H](O)[C@@H](CO)O2)c(=O)[nH]c1=O" lower than 0.07 or not?
Result: yes (1)

Query: Do the same for "Oc1cc(O)cc(/C=C/c2ccccc2)c1" please
Result: yes (1)

Query: Do the same for "Oc1ccc(/C=C/c2cc(O)cc(O)c2)cc1" please
Result: yes (1)

Query: Do the same for "COc1cc(/C=C/CO)ccc1O" please
Result: no (0)

Query: Do the same for "N#Cc1c(-c2ccc(Br)cc2)cc(-c2ccc3c(c2)OCO3)c(C#N)c1N" please
Result: no (0)

Query: Do the same for "O=c1[nH]c(=O)n([C@H]2C[C@H](O)[C@@H](CO)O2)cc1F" please
Result: no (0)

Query: Do the same for "Cc1cc(O)c2c(c1)Cc1cccc(O)c1C2=O" please
Result: yes (1)

Query: Do the same for Cc1cc(Cl)ccc1OCC(O)CN1CCN(C)CC1 (configuration not stated) please
Result: yes (1)

Query: Do the same for "Cc1cn([C@H]2C[C@H](N=[N+]=[N-])[C@@H](CO)O2)c(=O)[nH]c1=O" please
Result: yes (1)

Query: Do the same for "O=c1[nH]c(=O)n([C@H]2C[C@H](O)[C@@H](CO)O2)cc1C(F)(F)F" please
Result: no (0)

Query: Do the same for "N#Cc1c2c(c(Nc3ccc(O)cc3)n3c1nc1ccccc13)CCC2" please
Result: yes (1)

====

Tested on: A673/TR/shEF
ASSAY: cell viability (LOESS-normalised, relative to median of negative controls) (log2 ratio); higher = more viable cells (less compound effect), active = hit call of the paper (over 3 MAD below the median)
STATED CONDITIONS: 0.103 µM; library screen: screen3; EWS-FLI1 expression: low (doxycycline-induced shRNA knockdown); treatment time: 72 h
Hit rate of the full screen: of about 3,200 compounds, about 300 (9.4%) showed activity. The list comes from a sample in which actives are over-represented; it also holds close analogues and randomly drawn compounds.
Result category, one only: YES for active, NO for inactive

Query: Entry "Oc1ccc(/C=C/c2cc(O)cc(O)c2)cc1" : call = ?
Result: NO

Query: Do the same for "COc1ccc(-c2ccc3c(N4CCOCC4)nc(N4C[C@@H](C)O[C@@H](C)C4)nc3n2)cc1CO" please
Result: NO

Query: Do the same for "Nc1nc(F)nc2c1ncn2[C@@H]1O[C@H](CO)[C@@H](O)[C@@H]1O" please
Result: NO

Query: Do the same for "COc1c(C)c2c(c(O)c1C/C=C(\C)CCC(=O)OCCN1CCOCC1)C(=O)OC2" please
Result: NO

Query: Do the same for "Nc1ncnc2c1ncn2[C@@H]1O[C@H](CO)[C@@H](O)[C@H]1O" please
Result: NO

Query: Do the same for "COc1c(C)c2c(c(O)c1C/C=C(\C)CCC(=O)O)C(=O)OC2" please
Result: NO

Query: Do the same for C[C@@H]1C/C=C/C=C/C=C/C=C/[C@H](OC2O[C@H](C)[C@@H](O)[C@H](N)[C@@H]2O)C[C@@H]2O[C@](O)(C[C@@H](O)C[C@H]3O[C@@H]3/C=C/C(=O)O1)C[C@H](O)[C@H]2C(=O)O (some centres not stated) please
Result: NO

Query: Do the same for "COC(=O)Nc1ccc(-c2nc(N3CCOCC3)c3cnn(C4CCN(C(=O)OC)CC4)c3n2)cc1" please
Result: NO

Query: Do the same for "COc1ccc(-c2ccc3c(N4CCOC[C@@H]4C)nc(N4CCOC[C@@H]4C)nc3n2)cc1CO" please
Result: YES

Query: Do the same for COc1ccc(-c2nc3ccc(C4=NNC(=O)CC4C)cc3[nH]2)cc1 (configuration not stated) please
Result: NO

Query: Do the same for "CC[C@H](CO)Nc1nc(NCc2ccccc2)c2ncn(C(C)C)c2n1" please
Result: NO

Query: Do the same for "CC1(C)C(=O)N(CCN2CCC(C(=O)c3ccc(F)cc3)CC2)c2ccccc21" please
Result: NO

Query: Do the same for "CCOc1cc2ncc(C#N)c(Nc3ccc(F)c(Cl)c3)c2cc1NC(=O)/C=C/CN(C)C" please
Result: NO

Query: Do the same for CCC1=C(C)CN(C(=O)NCCc2ccc(S(=O)(=O)NC(=O)NC3CCC(C)CC3)cc2)C1=O (configuration not stated) please
Result: NO

Query: Do the same for "CC(C)(O)[C@@H]1CC[C@](C)([C@H]2[C@@H](O)C[C@@]3(C)[C@@H]4C[C@H](O[C@@H]5O[C@H](CO)[C@@H](O)[C@H](O)[C@H]5O)[C@H]5C(C)(C)[C@@H](O[C@@H]6OC[C@@H](O)[C@H](O)[C@H]6O)CC[C@@]56C[C@@]46CC[C@]23C)O1" please
Result: NO

Query: Do the same for "COc1ccc(Cl)cc1C(=O)NCCc1ccc(S(=O)(=O)NC(=O)NC2CCCCC2)cc1" please
Result: NO

Query: Do the same for "Nc1ncnc2c1ncn2[C@@H]1O[C@H](CO)[C@@H](O)[C@@H]1O" please
Result: NO

====

Can you tell me cell viability (log2) for the items I'm about to list?
Test system: A673/TR/shEF
ASSAY: cell viability (LOESS-normalised, relative to median of negative controls) (log2 ratio); higher = more viable cells (less compound effect), active = hit call of the paper (over 3 MAD below the median)
STATED CONDITIONS: 0.926 µM; library screen: screen3; EWS-FLI1 expression: low (doxycycline-induced shRNA knockdown); treatment time: 72 h
Among all 3,200 compounds or so, about 300 (9.4%) showed activity. Shown is part of a subset that was picked to be rich in actives.
Reply: number alone, nothing else.

Query: Please look up its cell viability (log2): "Cc1cc(Nc2cc(CN3CCOCC3)c3nc(C)c(Cc4ccc(Cl)cc4F)n3n2)n[nH]1"
Result: 0.0432

Query: Do the same for "Oc1ccc(OCc2ccccc2)cc1" please
Result: -0.0221

Query: Do the same for "CNC(=O)c1ccccc1Sc1ccc2c(/C=C/c3ccccn3)n[nH]c2c1" please
Result: 0.145

Query: Do the same for "C=CC(=O)Nc1cc2c(Nc3ccc(F)c(Cl)c3)ncnc2cc1OCCCN1CCOCC1" please
Result: -0.0107

Query: Do the same for "Cc1cn([C@@H]2C[C@@H](O)[C@H](CO)O2)c(=O)[nH]c1=O" please
Result: 0.0817

Query: Do the same for "COc1cc2c(Nc3ccc(Br)cc3F)ncnc2cc1OCC1CCN(C)CC1" please
Result: 0.0503

Query: Do the same for "COc1cc2c(N3CCN(C(=O)Nc4ccc(OC(C)C)cc4)CC3)ncnc2cc1OCCCN1CCCCC1" please
Result: -0.0604

Query: Do the same for "CN(C)C/C=C/C(=O)Nc1cc2c(Nc3ccc(F)c(Cl)c3)ncnc2cc1O[C@H]1CCOC1" please
Result: -0.000186

Query: Do the same for "O=c1[nH]c(=O)n([C@H]2C[C@H](O)[C@@H](CO)O2)cc1C(F)(F)F" please
Result: 0.0588

Query: Do the same for "CS(=O)(=O)CCNCc1ccc(-c2ccc3ncnc(Nc4ccc(OCc5cccc(F)c5)c(Cl)c4)c3c2)o1" please
Result: 0.114

Measured values drawn from the supplement of paper PMC6089552 for this set.
